- System: PC-3 [JPC-3]
- testMethodNotes: relative viability (nuclei count vs DMSO), 5 days (fraction); higher = more cells survive
- runParameters: first compound 2.53 µM
Recorded relative viability values for a group of compounds are listed next.
// return just the number, without any unit appended

Would you please look over these solved cases?
CCCCCCCCCCCC1=C(O)C(=O)C=C(O)C1=O [Embelin] + COc1cc2c(Oc3ccc(NC(=O)C4(C(=O)Nc5ccc(F)cc5)CC4)cc3F)ccnc2cc1OCCCN1CCOCC1 [Foretinib] (partner 0.25 µM) = 0.985
CCCCCCCCCCCC1=C(O)C(=O)C=C(O)C1=O [Embelin] + CC1(C)CCC(c2ccc(Cl)cc2)=C(CN2CCN(c3ccc(C(=O)NS(=O)(=O)c4ccc(N[C@H](CCN5CCOCC5)CSc5ccccc5)c(S(=O)(=O)C(F)(F)F)c4)cc3)CC2)C1 [Navitoclax] (partner 0.5 µM) = 0.941
CCCCCCCCCCCC1=C(O)C(=O)C=C(O)C1=O [Embelin] + CS(=O)(=O)CCNCc1ccc(-c2ccc3ncnc(Nc4ccc(OCc5cccc(F)c5)c(Cl)c4)c3c2)o1 [Lapatinib] (partner 2 µM) = 0.477
CCCCCCCCCCCC1=C(O)C(=O)C=C(O)C1=O [Embelin] + Nc1nc2[nH]cc(CCc3ccc(C(=O)N[C@@H](CCC(=O)O)C(=O)O)cc3)c2c(=O)[nH]1 [Pemetrexed] (partner 0.2 µM) = 1.07
CCCCCCCCCCCC1=C(O)C(=O)C=C(O)C1=O [Embelin] + CC(=O)c1c(C)c2cnc(Nc3ccc(N4CCNCC4)cn3)nc2n(C2CCCC2)c1=O [Palbociclib] (partner 0.5 µM) = 0.571

API: the following record is the query input.
**Query** Consider the compound shown here: CCCCCCCCCCCC1=C(O)C(=O)C=C(O)C1=O [Embelin] + CC(C)C[C@H](NC(=O)[C@H](Cc1ccccc1)NC(=O)c1cnccn1)B(O)O [Bortezomib] (partner 0.002 µM) What is its recorded relative viability?
**Result** 0.927
